// data source = patent US20090317452A1

Assay: Solvency of the active substance in monomers (visual inspection)
Type: physicochemical
Design: key: Excellent: The active substance was not found to have been precipitated in the solution of active substance both immediately after the preparation and after the preservation for 7 days.; Good: The active substance was found to have been precipitated in the solution of active substance immediately after the preparation, but the active substance was not found to have been precipitated in the solution of active substance after the preservation for 7 days.; Poor: The active substance was found to have been precipitated in the solution of active substance both immediately after the preparation and after the preservation for 7 days
Conditions: 3 parts active substance in 100 parts 2-Ethylhexyl Acrylate; 25° C., 7 days
endpoint: Solvency of the active substance

# compound, endpoint, measuredValue
rows = [
    ("O=[N+]([O-])O[C@H]1CO[C@H]2[C@@H]1OC[C@H]2O[N+](=O)[O-] [ISDN, isosorbide dinitrate]", "Solvency of the active substance", "Excellent"),
    ("COc1ccc2c(c1)c(CC(=O)O)c(C)n2C(=O)c1ccc(Cl)cc1 [IMT, indomethacin]", "Solvency of the active substance", "Poor"),
    ("COc1ccc(OC)c(C(O)CN)c1 (stereo not shown) [DMAE, 2-amino-1-(2′,5′-dimethoxyphenyl)ethanol]", "Solvency of the active substance", "Poor"),
    ("CC(C)(C)NCC(O)c1ccccc1Cl (stereo not shown) [TB, tulobuterol]", "Solvency of the active substance", "Excellent"),
]

====

Catalogue of Residual Rate (% by weight) Immediately after Preparation values
Experiment: Residual rate of the active substance in monomer solution (HPLC)
Type: physicochemical
Settings: in 2-Ethylhexyl Methacrylate
endpoint: Residual Rate (% by weight) Immediately after Preparation

# compound, measuredValue
rows = [
    ("CC(C)(C)NCC(O)c1ccccc1Cl (stereo not shown)", 100),
    ("COc1ccc(OC)c(C(O)CN)c1 (stereo not shown)", 99),
    ("COc1ccc2c(c1)c(CC(=O)O)c(C)n2C(=O)c1ccc(Cl)cc1", 100),
    ("O=[N+]([O-])O[C@H]1CO[C@H]2[C@@H]1OC[C@H]2O[N+](=O)[O-] [ISDN, isosorbide dinitrate]", 100),
]

====

Assay: Residual rate of the active substance in monomer solution (HPLC)
Format: physicochemical
Conditions: in Acrylic Acid
endpoint: Residual Rate (% by weight) Immediately after Preparation

# compound, measuredValue
rows = [
    ("COc1ccc(OC)c(C(O)CN)c1 (stereo not shown)", 99),
    ("O=[N+]([O-])O[C@H]1CO[C@H]2[C@@H]1OC[C@H]2O[N+](=O)[O-] [ISDN, isosorbide dinitrate]", 100),
    ("COc1ccc2c(c1)c(CC(=O)O)c(C)n2C(=O)c1ccc(Cl)cc1", 100),
    ("CC(C)(C)NCC(O)c1ccccc1Cl (stereo not shown)", 100),
]

====

Test: Solvency of the active substance in monomers (visual inspection)
Format: physicochemical
Parameters: key: Excellent: The active substance was not found to have been precipitated in the solution of active substance both immediately after the preparation and after the preservation for 7 days.; Good: The active substance was found to have been precipitated in the solution of active substance immediately after the preparation, but the active substance was not found to have been precipitated in the solution of active substance after the preservation for 7 days.; Poor: The active substance was found to have been precipitated in the solution of active substance both immediately after the preparation and after the preservation for 7 days
Conditions: 3 parts active substance in 100 parts Dodecyl Methacrylate; 25° C., 7 days

# molecule, Solvency of the active substance
rows = [
    ("COc1ccc2c(c1)c(CC(=O)O)c(C)n2C(=O)c1ccc(Cl)cc1", "Poor"),
    ("COc1ccc(OC)c(C(O)CN)c1 (stereo not shown)", "Poor"),
    ("CC(C)(C)NCC(O)c1ccccc1Cl (stereo not shown)", "Good"),
]
